Where these numbers come from: patent US20080199518A1

- assay name: physchem
- Format: physicochemical
- conditions: water, thermodynamic from solid; trisuccinate salt, aqueous; read-out: aqueous solubility
measurement name: solubility

What the record says about "COc1cc(N2CCN(C3CCN(c4ccc(F)c5cccnc45)CC3)CC2)c2ncccc2c1.O=C(O)CCC(=O)O.O=C(O)CCC(=O)O.O=C(O)CCC(=O)O" : solubility is ~1000 µg/mL
